Can you tell me CD28 scFv signal in presence of CD28 for the items I'm about to list?
SYSTEM: anti-CD28 scFv (VH - linker 1 - VL) (biotinylated (site not stated))
Sequence (scFv, as listed by the source): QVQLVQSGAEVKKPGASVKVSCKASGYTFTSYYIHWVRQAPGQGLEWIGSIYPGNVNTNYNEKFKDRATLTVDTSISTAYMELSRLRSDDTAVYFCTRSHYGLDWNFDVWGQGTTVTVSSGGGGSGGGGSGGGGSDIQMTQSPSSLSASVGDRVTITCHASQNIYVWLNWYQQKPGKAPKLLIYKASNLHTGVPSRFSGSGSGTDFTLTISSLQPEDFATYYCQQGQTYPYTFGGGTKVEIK
PROCEDURE_DETAILS: same phage ELISA, wells pre-incubated with soluble CD28 (competitor)
Where no end group is shown, it is not given here.
Lab note: jot down the number only; don't add units.

Task: If you can, please state the reported CD28 scFv signal in presence of CD28 value of MDWCPRHMWNYCFA (peptide, not shown: large carriers, cysteine pairing not given here; also: displayed on phage as fusion to pIII, linker and pIII sequence not given here, Clonal phage supernatant) [Phage-34] .
Output: 0.242

Task: If you can, please state the reported CD28 scFv signal in presence of CD28 value of MDWCPRDLWVHCFA (peptide, not shown: large carriers, cysteine pairing not given here; also: fused to phage pIII, linker not given here, Clonal phage supernatant) [Phage-29] .
Output: 0.179

Task: If you can, please state the reported CD28 scFv signal in presence of CD28 value of MDWCPRDLWSECFF (peptide, not shown: large carriers, Clonal phage supernatant) [Phage-28] .
Output: 0.218
